FYI, the data here is from ChEMBL document CHEMBL5303300.

- System: Fibroblast
- PROTOCOL_NOTES: Multiplex assay against human fibroblast
- Type: toxicity, cell-based
- PROTOCOL_CONDITIONS: 24 h, 1 µM, compound concentration 1 uM, number of replicates 2
Let's look at some compounds and their measured Population Hoechst High Intensity Objects (%).
Give a bare numeral; the unit % is implied.

Study these solved cases before continuing.
CNC(=O)c1c(F)cccc1Nc1nc(Nc2cc3c(cc2OC)CCN3C(=O)CN(C)C)nc2[nH]ccc12 | 0
CS(=O)(=O)c1ccc(C(=O)Nc2cccc(COc3ccc(Br)cc3CN3CC[C@H](O)C3)c2)cc1.O=CO | 0
N=C(N)NCCC[C@H](NC(=O)COCC(c1ccccc1)c1ccccc1)C(=O)O.O=C(O)C(F)(F)F | 0
Cc1onc(-c2ccccc2Cl)c1C(=O)N(C)c1ccc(Cl)cc1 | 0

(Q) Query (compound): CCNc1ccc(-c2nn(-c3ccccc3C)c3c2C(C)Cc2nc(NC(=O)OC)sc2-3)cn1.O=C(O)C(F)(F)F (stereo not drawn) ; field requested: Population Hoechst High Intensity Objects (%)
(A) 0

(Q) Then CS(=O)(=O)c1ccc(C(=O)Nc2cccc(COc3ccc(Br)cc3CN[C@H]3CCC[C@@H]3O)c2)c(Cl)c1.O=CO ?
(A) 0

(Q) Note, next up: COc1ccc(-c2cc3c(C)nc(N)nc3n([C@H]3CC[C@H](OCCO)CC3)c2=O)cn1
(A) 0

(Q) Further, for CN(C)CC#Cc1ccc2[nH]c3c(c2c1)-c1nc(N)ncc1CCC3 ?
(A) 0

(Q) For COCCNC1CCC(Nc2cc(-c3csc(NCC4(C#N)CCOCC4)n3)c(Cl)cn2)CC1 (stereo not drawn) then?
(A) 0

###

- System: HEK-293T
- PROTOCOL_NOTES: Multiplex assay against HEK293T
- Type: toxicity, cell-based
- PROTOCOL_CONDITIONS: human, 24 h, 10 µM, compound concentration 10 uM, number of replicates 2
MEASURED_PARAMETER: Population Hoechst High Intensity Objects (%)
Record the value in %, omitting the unit from your answer.

Br.Cc1cccc(C2CN(C)CCc3c2cc(O)c(O)c3Cl)c1 (stereo not given) | 7
CC1(C)C(=O)N([C@H]2CCc3c(O)cccc32)c2nc(Nc3cccc(CN4CCCC4)c3)ncc21 | 21
COc1cccc(Cn2cc(C(=O)Nc3ccc(C)c(S(=O)(=O)N4CCOCC4)c3)c(-c3ccc(C)cc3)n2)c1 | 8
CCN1CCN(Cc2ccc(C(=O)Nc3ccc(C)c(Oc4ccc5c(c4)CC(=O)N5)c3)cc2C(F)(F)F)CC1.Cl.Cl | 15

(Q) Look up Population Hoechst High Intensity Objects (%): N=C(N)NCCC[C@H](NC(=O)COCC(c1ccccc1)c1ccccc1)C(=O)O.O=C(O)C(F)(F)F
(A) 7

###

- Tested on: HEK-293T
- PROTOCOL_NOTES: Multiplex assay against HEK293T
- Format: toxicity, cell-based
- PROTOCOL_CONDITIONS: human, 48 h, 10 µM, compound concentration 10 uM, number of replicates 2
Rule: Population Tubulin-Different-Phenotype (%) of 80% or more gives Met; anything lower gives Not met.

Known results for compounds:
CCc1cnn2c(NCc3ccc[n+]([O-])c3)cc(N3CCCCC3CCO)nc12 (stereo not given) | Met
Cc1cccc(S(=O)(=O)N(C)[C@H](C)CCN2CCC(C)CC2)c1.Cl | Not met
CNC(=O)c1c(F)cccc1Nc1nc(Nc2cc3c(cc2OC)CCN3C(=O)CN(C)C)nc2[nH]ccc12 | Met

Moving on to the next compound.
(Q) # bool: Population Tubulin-Different-Phenotype (%) of Cc1cc(C2CCCNC2)ccc1Nc1ncc(Br)c(NCc2cccc3c2C(C)(C)C(=O)N3)n1 (stereo not given) >= 80%
(A) Met
